measured.target: PD-1/PD-L1 (Homo sapiens)
Sequence (Q9NZQ7 19-238 limits assumed): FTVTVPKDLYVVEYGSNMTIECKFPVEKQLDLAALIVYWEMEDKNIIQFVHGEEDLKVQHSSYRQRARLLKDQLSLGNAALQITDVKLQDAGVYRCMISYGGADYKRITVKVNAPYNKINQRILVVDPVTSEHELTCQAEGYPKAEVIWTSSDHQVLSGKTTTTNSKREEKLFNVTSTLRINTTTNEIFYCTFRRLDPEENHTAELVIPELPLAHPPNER
test.summary: PD-1/PD-L1 biochemical protein-protein interaction assay (ALPHA)
test.parameters: 0.3 nM His tagged PD-L1, 2.5 nM biotinylated Fc-PD-1, 60 minutes at 25° C., read-out: IC50 PD-L1-PD-1 Alpha IC50-mono PD-L1-fcP-D1
With a cut-off of 0.1 nM, any IC50 strictly below it is called criterion met; any IC50 meeting it or above is called criterion not met.

>  <compound>
Cc1c(COc2cc(OCc3cncc(C#N)c3)c(CNC[C@H](O)C(=O)O)cc2Cl)cccc1-c1cccc(COc2cc(OCc3cncc(C#N)c3)c(CNC[C@H](O)C(=O)O)cc2Cl)c1C [Example 213]

>  <group>
criterion not met

$$$$
>  <compound>
COc1nc(-c2cccc(-c3cccc(-c4ccc5ncc(CN6CC(O)C6)n5c4)c3Cl)c2Cl)ccc1CN1CC(O)C1 [Example 615]

>  <group>
criterion not met

$$$$
>  <compound>
Cc1c(COc2ccc(CNC[C@@H](O)CC(=O)O)cc2C(F)(F)F)cccc1-c1cccc(COc2ccc(CNC[C@@H](O)CC(=O)O)cc2C(F)(F)F)c1C [Example 224]

>  <group>
criterion not met

$$$$
>  <compound>
N#Cc1cncc(COc2nc(OCc3cccc(-c4cccc(-c5ccc(OCCNCCO)cc5)c4Cl)c3Cl)c(Cl)cc2CN2C[C@@H](O)C[C@H]2C(=O)O)c1 [Example 560]

>  <group>
criterion not met

$$$$
>  <compound>
Cc1c(COc2cc(OCc3cncc(C#N)c3)c(CN3C[C@@H](O)C[C@H]3C(=O)O)cc2Cl)cccc1-c1cccc(COc2cc(OCc3cncc(C#N)c3)c(CN3C[C@@H](O)C[C@H]3C(=O)O)cc2Cl)c1C [Example 58]

>  <group>
criterion not met

$$$$
>  <compound>
Cc1c(COc2cc(OCc3cncc(C#N)c3)c(CN[C@@](C)(CO)C(=O)O)cc2Cl)cccc1-c1cc(F)cc(-c2ccc(CN(C)C)cc2)c1Cl [Example 457]

>  <group>
criterion met

$$$$
>  <compound>
C[C@@](CO)(NCc1cc(Cl)c(O[C@H]2CCc3c(-c4cccc5c4CC[C@@H]5Oc4ccc(CN5CC[C@@H](O)C5)c(OCc5cncc(S(C)(=O)=O)c5)n4)cccc32)nc1OCc1cncc(S(C)(=O)=O)c1)C(=O)O [Example 687]

>  <group>
criterion not met

$$$$
>  <compound>
CCOC(=O)[C@@H]1CCCCN1Cc1cc(Br)c(O[C@H]2CCc3c(-c4cccc(-c5ccc(C6=NCCN6)c(OC)n5)c4Cl)cccc32)nc1OC [Example 776]

>  <group>
criterion not met

$$$$
>  <compound>
C[C@@](CO)(NCc1cc(Br)c(O[C@H]2CCc3c(-c4cccc(-c5ccc(C6=NCCN6)cc5)c4Cl)cccc32)nc1OCc1cncc(C#N)c1)C(=O)O [Example 737]

>  <group>
criterion met

$$$$
>  <compound>
COc1nc(-c2cccc(-c3cccc(COc4nc(OCc5cncc(C#N)c5)c(CN[C@@](C)(CO)C(=O)O)cc4Br)c3Cl)c2Cl)ccc1C1=NCCN1 [Example 559]

>  <group>
criterion met

$$$$
>  <compound>
Cc1c(COc2cc(OCc3cncc(C#N)c3)c(CNC[C@@H](O)CC(=O)O)cc2Cl)cccc1-c1cccc(-c2ccc(C3=NCCN3)c(OCCCC#N)c2)c1C [Example 465]

>  <group>
criterion not met

$$$$
